- Method description: Cytotoxicity against human SF268 cells by SRB assay
- Format: functional
- Experimental context: SF-268
Kindly supply the reported GI50 values for the records listed here.
The reply should be a number in nM, with the unit left off.

input: Would you mind telling me what GI50 value was observed for COc1ccc(/C=C(\C#N)c2cc(OC)cc(OC)c2)cc1 ?
output: 840

input: Queued: COc1cc(/C=C(\C#N)c2cc(OC)c(OC)c(OC)c2)cc(OC)c1
output: 25300

input: Queued: COc1ccc(/C=C/c2cc(OC)cc(OC)c2/C=C(\C#N)c2ccc(OC)cc2)cc1
output: 4710

----------
- Method description: Cytotoxicity against human LOXIMVI cells by SRB assay
- Format: functional
- Experimental context: LOX IMVI
Parameter: GI50 (nM)
The reply should be a number in nM, with the unit left off.

input: Would you mind telling me what GI50 value was observed for COc1ccc(/C=C(/C#N)c2ccc(OC)c(OC)c2)cc1O ?
output: 70

input: Queued: COc1ccc(/C=C\c2cc(OC)c(OC)c(OC)c2)cc1O
output: 3

input: Queued: COc1ccc(/C=C(\C#N)c2cc(OC)c(OC)c(OC)c2)cc1
output: 10

input: Queued: COc1ccc(/C=C(\C#N)c2ccc(OC)c(OC)c2)cc1O
output: 60

----------
- Method description: Cytotoxicity against human UO31 cells by SRB assay
- Assay type: functional
- Experimental context: UO-31
Parameter: GI50

input: Would you mind telling me what GI50 value was observed for COc1ccc(/C=C(\C#N)c2cc(OC)c(OC)c(OC)c2)cc1 ?
output: < 10 nM

input: Queued: COc1ccc(/C=C(/C#N)c2cc(OC)c(OC)c(OC)c2)cc1O
output: < 10 nM

input: Queued: COc1ccc(/C=C(\C#N)c2cc(OC)c(OC)c(OC)c2)cc1O
output: < 10 nM

----------
Kindly supply the reported GI50 values for the records listed here.
- Tested on: SR
- Method description: Cytotoxicity against human SR cells by SRB assay
- Type: functional

input: Would you mind telling me what GI50 value was observed for COc1ccc(/C=C(\C#N)c2cc(OC)c(OC)c(OC)c2)cc1 ?
output: < 10 nM

input: Queued: COc1ccc(/C=C(\C#N)c2cc(OC)c(OC)c(OC)c2)cc1O
output: < 10 nM

input: Queued: COc1ccc(/C=C(/C#N)c2cc(OC)c(OC)c(OC)c2)cc1O
output: < 10 nM
